# Target: human orexin type 2 receptor (hOX2R) (Homo sapiens, UniProt O43614)
# Construct: expressed in transfected cells
# Sequence (O43614 whole entry): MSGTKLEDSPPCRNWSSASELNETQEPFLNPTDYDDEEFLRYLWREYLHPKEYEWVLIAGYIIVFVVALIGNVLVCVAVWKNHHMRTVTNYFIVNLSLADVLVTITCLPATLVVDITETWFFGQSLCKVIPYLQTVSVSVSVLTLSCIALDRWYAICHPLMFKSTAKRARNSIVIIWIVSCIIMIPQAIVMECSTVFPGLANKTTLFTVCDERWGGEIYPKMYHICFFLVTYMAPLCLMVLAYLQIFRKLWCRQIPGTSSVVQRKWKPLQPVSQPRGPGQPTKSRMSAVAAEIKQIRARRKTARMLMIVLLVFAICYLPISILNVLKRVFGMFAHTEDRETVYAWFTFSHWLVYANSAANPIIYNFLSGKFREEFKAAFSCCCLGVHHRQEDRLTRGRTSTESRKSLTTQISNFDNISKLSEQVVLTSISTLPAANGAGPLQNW
# Run description: Measurement of orexin type 2 receptor agonist activity (FLIPR calcium fluorescence)
# Assay type: cell-based
# Condition context: CHO cells expressing hOX2R, FLIPR calcium fluorescence; read-out: hOx2 pEC50 (converted)
# Procedure: The biological activity of the compounds of the present disclosure may be determined in cells stably expressing either orexin type 2 or orexin type 1 receptor. […] The agonist activity of a compound of the present disclosure may be determined by fluorescence value. Stable cell line generation. Measurement of orexin type 2 receptor agonist activity. […] As used herein, E. indicates the value at 10 μM concentration when orexin A is converted to a full agonist (maximum value of agonist activity. 100%).
Below: a set of entries, each annotated with reported EC50.

Compound: CC1(CNC(=O)N2CC3(CC3)[C@H](NS(C)(=O)=O)[C@@H]2Cc2cccc(-c3ccccc3)c2F)COC1 [Compound 322]
EC50: 0.0794 to 1 nM
//
Compound: CS(=O)(=O)N[C@@H]1[C@H](Cc2cccc(-c3ccccc3)c2F)N(C(=O)[C@@H]2CCO2)CC12CC2 [Compound 20]
EC50: 10 to 100 nM
//
Compound: O=C([C@H]1CCO1)N1CC2(CC2)[C@H](NS(=O)(=O)CF)[C@@H]1Cc1cccc(-c2cccc(F)c2)c1F [Compound 132]
EC50: 0.0794 to 1 nM
//
Compound: CC[C@@](C)(O)C(=O)N1CC2(CC2)[C@H](NS(=O)(=O)CF)[C@@H]1Cc1cccc(-c2cccc(F)c2)c1F [Compound 379]
EC50: 1 to 10 nM
//
Compound: CC(C)(O)C(=O)N1CC2(CC2)[C@H](NS(=O)(=O)C(F)F)[C@@H]1Cc1cccc(-c2cc(F)cc(F)c2)c1F [Compound 195]
EC50: 1 to 10 nM
//
Compound: CS(=O)(=O)N[C@@H]1[C@H](Cc2cccc(-c3ccccc3)c2)N(C(=O)[C@H](O)C(F)F)CC12CC2 [Compound 70]
EC50: 1 to 10 nM
//
Compound: COC1CN(C(=O)N2CC3(CC3)C(NS(C)(=O)=O)C2Cc2cccc(-c3ccccc3)c2F)C1 (racemic) [Compound 46]
EC50: 10 to 100 nM
//
Compound: CS(=O)(=O)NC1C(Cc2cccc(-c3ccccc3)c2)N(C(=O)C23CC2C3)CC12CC2 (racemic) [Compound 66]
EC50: 10 to 100 nM
//
Compound: CNS(=O)(=O)N[C@@H]1[C@H](Cc2cccc(-c3ccccc3)c2F)N(C(=O)[C@H]2CCO2)CC12CC2 [Compound 65]
EC50: 1 to 10 nM
//
Compound: CS(=O)(=O)N[C@@H]1[C@H](Cc2cccc(-c3ccccc3)c2)N(C(=O)[C@H](O)C2CC2)CC12CC2 [Compound 61]
EC50: 1 to 10 nM
//
Compound: C[C@@H](F)S(=O)(=O)N[C@@H]1[C@H](Cc2cccc(-c3ccccc3)c2F)N(C(=O)[C@H]2CCO2)CC12CC2 [Compound 193]
EC50: 1 to 10 nM
//
Compound: O=C([C@H]1CCO1)N1CC2(CC2)[C@H](NS(=O)(=O)CF)[C@@H]1Cc1cc(F)cc(-c2cc(F)ccc2F)c1F [Compound 218]
EC50: 1 to 10 nM
//
Compound: CO[C@@H](C)CN(C)C(=O)N1CC2(CC2)[C@H](NS(C)(=O)=O)[C@@H]1Cc1cccc(-c2ccccc2)c1F [Compound 316]
EC50: 1 to 10 nM
//
Compound: O=C([C@H](O)C(F)(F)F)N1CC2(CC2)[C@H](NS(=O)(=O)CF)[C@@H]1Cc1cccc(-c2ccccc2)c1 [Compound 94]
EC50: 1 to 10 nM

====

# Target: human orexin type 2 receptor (hOX2R) (Homo sapiens)
# Construct: expressed in transfected cells
# Run description: Measurement of orexin type 2 receptor agonist activity (FLIPR calcium fluorescence)
# Type: cell-based
# Condition context: CHO, CHO cells expressing hOX2R, FLIPR calcium fluorescence; read-out: hOx2 Emax (%)
Quantity name: Emax

Compound: CO[C@@H](C)CNC(=O)N1CC2(CC2)[C@H](NS(C)(=O)=O)[C@@H]1Cc1cccc(-c2ccccc2)c1F
Quantity name: Emax
Result: 90 to 100%
//
Compound: CS(=O)(=O)N[C@H]1[C@@H](Cc2cccc(-c3ccccc3)c2F)N(C(=O)[C@H]2CCO2)CC12CC2
Quantity name: Emax
Result: 90 to 100%
//
Compound: CCS(=O)(=O)NC1C(Cc2cccc(-c3ccccc3)c2)N(C(=O)C(C)C)CC12CC2 (racemic)
Quantity name: Emax
Result: 90 to 100%
//
Compound: O=C([C@@H](O)C1CC1)N1CC2(CC2)[C@H](NS(=O)(=O)C(F)F)[C@@H]1Cc1cccc(-c2cc(F)cc(F)c2)c1F
Quantity name: Emax
Result: 90 to 100%
//
Compound: O=C(NCCF)N1CC2(CC2)[C@H](NS(=O)(=O)CF)[C@@H]1Cc1cc(F)cc(-c2ccccc2)c1F
Quantity name: Emax
Result: 90 to 100%
//
Compound: C[C@H](F)S(=O)(=O)N[C@@H]1[C@H](Cc2cccc(-c3ccccc3)c2F)N(C(=O)[C@H]2CCO2)CC12CC2
Quantity name: Emax
Result: 90 to 100%
//
Compound: C[C@@H](F)S(=O)(=O)N[C@@H]1[C@H](Cc2cccc(-c3ccccc3)c2F)N(C(=O)[C@H]2CCO2)CC12CC2
Quantity name: Emax
Result: 90 to 100%
//
Compound: C[C@H](CF)NC(=O)N1CC2(CC2)[C@H](NS(=O)(=O)C(F)F)[C@@H]1Cc1cccc(-c2ccccc2)c1F
Quantity name: Emax
Result: 90 to 100%
//
Compound: C[C@@H](C#N)S(=O)(=O)N[C@@H]1[C@H](Cc2cccc(-c3ccccc3)c2)N(C(=O)[C@H]2CCO2)CC12CC2
Quantity name: Emax
Result: 90 to 100%
//
Compound: CS(=O)(=O)NC1C(Cc2cccc(-c3ccccc3)c2F)N(C(=O)N2CC(F)C2)CC12CC2 (racemic)
Quantity name: Emax
Result: 90 to 100%
//
Compound: CS(=O)(=O)N[C@@H]1[C@H](Cc2cccc(-c3ccccc3)c2F)N(C(=O)NC2CC(F)C2)CC12CC2 (stereo partly drawn)
Quantity name: Emax
Result: 80 to 90%
//
Compound: C[C@@H](F)C(=O)N1CC2(CC2)[C@H](NS(=O)(=O)CF)[C@@H]1Cc1cc(F)cc(-c2ccccc2)c1F
Quantity name: Emax
Result: 90 to 100%
//
Compound: O=C(NCC1(F)CC1)N1CC2(CC2)[C@H](NS(=O)(=O)C(F)F)[C@@H]1Cc1cc(F)cc(-c2ccccc2)c1F
Quantity name: Emax
Result: 90 to 100%
//
Compound: CS(=O)(=O)N[C@@H]1[C@H](Cc2cccc(-c3ccccc3)c2F)N(C(=O)NCC(F)F)CC12CC2
Quantity name: Emax
Result: 90 to 100%
//
Compound: CS(=O)(=O)N[C@@H]1[C@H](Cc2cccc(-c3ccccc3)c2F)N(C(=O)NCC2(F)CC2)CC12CC2
Quantity name: Emax
Result: 90 to 100%
//
Compound: CS(=O)(=O)N[C@@H]1[C@H](Cc2cccc(-c3ccccc3)c2F)N(C(=O)N2CCC2)CC12CC2
Quantity name: Emax
Result: 90 to 100%
//
Compound: O=C([C@@H](O)C1CC1)N1CC2(CC2)[C@H](NS(=O)(=O)C(F)F)[C@@H]1Cc1cccc(-c2ccccc2)c1F
Quantity name: Emax
Result: 90 to 100%
//
Compound: O=C([C@H](O)C(F)F)N1CC2(CC2)[C@H](NS(=O)(=O)CF)[C@@H]1Cc1cc(F)cc(-c2ccccc2)c1F
Quantity name: Emax
Result: 90 to 100%
//
Compound: CCS(=O)(=O)NC1C(Cc2cc(F)cc(-c3ccccc3)c2F)N(C(=O)[C@H](O)CF)CC12CC2 (stereo in doubt)
Quantity name: Emax
Result: 90 to 100%
//
Compound: O=C(NCC(F)F)N1CC2(CC2)[C@H](NS(=O)(=O)C(F)F)[C@@H]1Cc1cccc(-c2cc(F)cc(F)c2)c1F
Quantity name: Emax
Result: 90 to 100%
//
Compound: CCS(=O)(=O)N[C@@H]1[C@H](Cc2cccc(-c3cccc(F)c3)c2F)N(C(=O)C(C)(C)O)CC12CC2
Quantity name: Emax
Result: 90 to 100%
//
Compound: CN(C)S(=O)(=O)N[C@@H]1[C@H](Cc2cccc(-c3ccccc3)c2)N(C(=O)[C@H]2CCO2)CC12CC2
Quantity name: Emax
Result: 90 to 100%
//
Compound: CCS(=O)(=O)N[C@@H]1[C@H](Cc2cccc(-c3cccc(F)c3)c2F)N(C(=O)[C@H]2CCO2)CC12CC2
Quantity name: Emax
Result: 90 to 100%
//
Compound: CS(=O)(=O)N[C@@H]1[C@H](Cc2cccc(-c3ccccc3)c2F)N(C(=O)[C@H](O)C(F)(F)F)CC12CC2
Quantity name: Emax
Result: 90 to 100%
//
Compound: CS(=O)(=O)N[C@@H]1[C@H](Cc2cccc(-c3ccccc3)c2F)N(C(=O)[C@H](O)C(F)F)CC12CC2
Quantity name: Emax
Result: 90 to 100%
//
Compound: N#CC1(C(=O)N2CC3(CC3)[C@H](NS(=O)(=O)C(F)F)[C@@H]2Cc2cccc(-c3ccccc3)c2F)CCC1
Quantity name: Emax
Result: 90 to 100%
//
Compound: COC1CN(C(=O)N2CC3(CC3)[C@H](NS(=O)(=O)CF)[C@@H]2Cc2cccc(-c3cc(F)cc(F)c3)c2F)C1
Quantity name: Emax
Result: 90 to 100%
